Where do these numbers come from? They come from PubChem BioAssay (NCI).

Record form. Attribute: TGI. Fill in for each entry.
# Test system: MALME-3M melanoma
# Method Summary: NCI tumour cell line growth inhibition, 48 h

Consider the reported TGI for these compounds:
O=C(NC1CCCCCC1)C1C(=O)N(C2CCCCCC2)C(=O)/C1=N\O (centres undefined)	68.5 µM
CC1CN=C(Nc2ccc(S(N)(=O)=O)cc2)S1 (centres undefined)	> 100 µM

Would you mind giving TGI for every compound in the list below?
1. CN(C)/N=C(\CCN1CCCC1)CC(c1ccccc1)c1c(O)c2ccccc2oc1=O (centres undefined)
2. O=c1[nH]c(=O)n(C2CC(O)C(CS)O2)cc1F (centres undefined)
3. O=C(O)c1cc(N=Nc2ccc([As](=O)(O)O)cc2)ccc1O

1: > 100 µM; 2: > 100 µM; 3: > 100 µM

State recorded TGI for all listed compounds.
1. Cn1cc(C2=C(c3cn(C)c4c(N)cccc34)C(=O)NC2=O)c2ccccc21
2. C[C@]12CC[C@@H]3c4ccc(O)cc4C[C@@H](CCCCCCCCCS(=O)CCCC(F)(F)C(F)(F)F)[C@H]3[C@@H]1CC[C@@H]2O (some centres undefined)
3. Nc1ccc(C(=O)Nn2c(-c3ccccc3)nc3ccccc3c2=O)cc1
4. CC(C)CSc1nc(Nc2ccccc2)c(C#N)c(-c2ccc(F)cc2)n1
5. C#CC[C@]12CC(=O)CC[C@H]1CC(=O)C2
6. C=C1CC[C@@]2(OC1)OC1C[C@H]3[C@@H]4CC=C5C[C@@H](O)CC(OC6OCC(OC(=O)[C@@H](O)[C@@H](C)CC)C(OC(C)=O)C6OC6OC(C)C(O)C(O)C6O)[C@]5(C)[C@H]4CC[C@]3(C)C1[C@@H]2C (some centres undefined)

1: > 25 µM; 2: > 100 µM; 3: > 100 µM; 4: 10.6 µM; 5: > 100 µM; 6: > 10 µM

Please give TGI, item by item, for the list that follows.
1. COC(=O)C1(c2ccc(N(C)C)cc2OC)CCCN(C(=O)Oc2ccccc2[N+](=O)[O-])CCc2c1[nH]c1ccccc21 (centres undefined)
2. COc1ccc(-n2c(SCc3cc(OC)c(OC)c(OC)c3)nc3ccc(C)cc3c2=O)cc1
3. CNC1C(=O)C(C)C(O)(C(CC(C)C(O)/C=C/C=C/CNC(=O)C(C)(C)C(O)\C(C)=C/C=C\C=C\Cc2cnc(C)o2)OC)C12C(=O)OC2COC (centres undefined) (tested in a mixture with another compound)
4. COC1(OC)C2(Cl)CCC1(Cl)C(OC(C)=O)C2 (centres undefined)
5. Nc1nccc(-c2c(-c3ccc(F)cc3)ncn2CCCN2CCOCC2)n1

> 100 µM
> 100 µM
> 87.9 µM
> 100 µM
> 25 µM

State recorded TGI for all listed compounds.
1. CN(C)C(=S)SN(C)C(=O)Nc1ccccc1
2. COC(=O)c1ccc2c(c1)CC1(C2)Cc2cc3c(cc2C1=O)CCC3 (centres undefined)

1. 50.3 µM
2. 82.8 µM

Tell me TGI reported for `Cc1[nH]c(=O)[nH]c(=S)c1C(=O)NC(C)(CO)CO` > 100 µM

----------
# Tested on: SK-OV-3 ovarian
# Method Summary: NCI tumour cell line growth inhibition, 48 h
Property Label: TGI

Give measured TGI for every item shown.
1. O=C(NC1CCCCCC1)C1C(=O)N(C2CCCCCC2)C(=O)/C1=N\O (stereo unspecified)
2. O=C(O)C(Sc1ccc(Cl)cc1)Sc1ccc(Cl)cc1

["> 100 µM", "> 100 µM"]

State the recorded TGI for every item in the following list.
1. CC(C(=O)O)c1cnn(-c2ccccc2)c1-n1cccc1 (stereo unspecified)
2. CC(C)CCN=c1cc2n(-c3ccc(Cl)cc3)c3ccccc3nc-2cc1Nc1ccc(Cl)cc1
3. C=C1C(=O)O[C@H]2[C@H]1CC/C(COC(=O)/C=C\C(=O)NCc1ccc(Cn3c(=O)sn(-c4ccc(C#N)cc4)c3=O)cc1)=C\CC[C@@]1(C)O[C@@H]21
4. COc1ccc(-c2cc3c(nn2)-c2ccccc2C3=O)cc1

> 100 µM
70.2 µM
10.5 µM
> 100 µM

----------
# System: COLO 205 colon
# Method Summary: NCI tumour cell line growth inhibition, 48 h
Property Label: TGI (µM)
One number for each entry, in µM.

Cc1cccc(C(C)(C)C)c1NC(=O)CCc1n[nH]c(=S)o1	47.6

In the following, a different compound is considered.
Using known records, supply TGI for COc1ccccc1N1C(=O)/C(=C\c2cccc(Oc3ccccc3)c2)SC1c1ccccc1 (stereo not given) 55

----------
Would you mind telling me the reported GI50 of each entry?
# System: HCT-116 colon
# Method Summary: NCI tumour cell line growth inhibition, 48 h

Check out these entries, answers already filled in.
C[C@]12CC[C@@H]3c4ccc(Oc5nc(N6CC6)nc(N6CC6)n5)cc4CC[C@H]3[C@@H]1CCC2=O	2.46 µM
COC(=O)[C@]12CCC(C)(C)C[C@H]1C1=CC[C@@H]3[C@@]4(C)C/C(=C/c5cccnc5)C(=O)C(C)(C)[C@@H]4CC[C@@]3(C)[C@]1(C)CC2	2.71 µM

Note: attention shifts to another entry.
State recorded GI50 with HCT-116 colon, entry `Cn1cc(C2=C(c3cn(CCCN=C(N)N)c4ccccc34)C(=O)NC2=O)c2ccccc21` , no comment. > 25 µM

----------
# Test system: KM12 colon
# Method Summary: NCI tumour cell line growth inhibition, 48 h
Property Label: TGI

CC1=CC(=O)NCCN1C	> 100 µM

Each compound below has a reported value. Please supply its TGI.
1. N#CCCN(CCC#N)c1ccc(/C=C2\N=C(CN3C(=O)c4ccccc4C3=O)OC2=O)cc1
2. O=C(NCCCNC(=O)c1ccc2cc(O)c(O)cc2c1)c1ccc2cc(O)c(O)cc2c1
3. Cc1cc(NS(=O)(=O)c2ccc(N=Nc3c(O)c(C(=O)O)cc4ccccc34)cc2)nc(C)n1
4. COc1cc(C(=O)O[C@H](C(N)=O)[C@]2(C)CO2)c2ccccc2c1

["> 100 µM", "> 100 µM", "> 100 µM", "32.4 µM"]

----------
# Tested on: HCT-15 colon
# Method Summary: NCI tumour cell line growth inhibition, 48 h
I'd be grateful if you could share measured GI50 for these entries.

C[C@]12CC[C@@H]3c4ccc(O)cc4C[C@@H](CCCCCCCCCS(=O)CCCC(F)(F)C(F)(F)F)[C@H]3[C@@H]1CC[C@@H]2O (stereo not given in full)	> 100 µM
COc1ccc(-c2cc3c(nn2)-c2ccccc2C3=O)cc1	> 100 µM
COc1cc([C@@H]2c3cc4c(cc3C(O[C@@H]3O[C@@H]5CO[C@@H](c6cccs6)OC5[C@H](O)[C@H]3O)C3COC(=O)[C@@H]32)OCO4)cc(OC)c1O (stereo not given in full)	0.499 µM
COc1ccc(-n2c(SCc3cc(OC)c(OC)c(OC)c3)nc3ccc(C)cc3c2=O)cc1	5.24 µM

# context switch: different molecule, same GI50
Name the recorded GI50 of the molecule listed here: `COC(=O)[C@]12CCC(C)(C)C[C@H]1C1=CC[C@@H]3[C@@]4(C)C/C(=C/c5cccnc5)C(=O)C(C)(C)[C@@H]4CC[C@@]3(C)[C@]1(C)CC2` 4.58 µM

----------
# Tested on: OVCAR-5 ovarian
# Method Summary: NCI tumour cell line growth inhibition, 48 h
Kindly state TGI for each of the entries shown.

O=C(Nc1ccc2nc(-c3ccccc3)cn2c1)Oc1ccccc1	> 100 µM
CCOC(=O)/C(O)=C(/C=NC(=S)c1ccncc1)C(=O)OCC	> 100 µM
N#Cc1cnsc1	> 100 µM

Items follow; give TGI for each.
1. O=C(CCc1ccc(O)cc1)NCCc1ccc(O)cc1
2. Cc1ccc(NC(=O)C2C(=O)N(c3ccc(C)c(C)c3)C(=O)/C2=N/O)cc1C (centres undefined)
3. CCOC(=O)c1c(SC(=O)/C=C/c2ccccc2)n(-c2ccccc2)c(=S)n(-c2ccccc2)c1=O
4. Cc1oc2nc(N(C)C)nc(Cl)c2c1C
5. O=[N+]([O-])c1ccc2nnnn2c1
6. NC(N)=N/N=C/c1c(Cl)nc2sccn12

> 100 µM
> 100 µM
> 100 µM
> 100 µM
> 100 µM
80.9 µM

----------
# System: SW-620 colon
# Method Summary: NCI tumour cell line growth inhibition, 48 h
Property Label: TGI

Answered examples (5):
COC(=O)c1cc2c(c(C(=O)OC)c1O)C(=O)C=CC2=O	> 21.3 µM
NC1C2(CCCCCC2)NC(=O)C12CCCCCC2 (configuration not stated)	> 100 µM
CC[N+](C)(CC)Cc1ccccc1[N+](=O)[O-]	> 100 µM
N#C/C(C(=S)Nc1ccccc1)=C1/NN=C2c3ccccc3C(=O)NN21	> 100 µM
CC(=O)c1ccc(NC(=O)/C(Cc2ccccn2)=N/NC(=O)C[N+](C)(C)C)cc1	> 100 µM

Quick one: give me TGI for each item below, same order please.
1. CCc1cccc(C)c1NC(C)=O
2. CCN(CC)C(=O)C/C(C)=N/NC(=O)c1ccncc1
3. CC1=CC(=O)NCCN1C
4. C=CCN1C(=O)/C(=C/c2ccccc2)NC1=S

> 100 µM
> 100 µM
> 100 µM
> 100 µM

Batch lookup, TGI per entry.
1. C1=C2C3=[N+](CCCC3)CC2Cc2ccsc21 (configuration not stated)
2. Cc1cc(O)c(/C=N/C(=S)NCCc2ccccc2)c(=O)o1
3. CCCN=C(NC(=O)c1ccc(Cl)cc1)SC

> 100 µM
> 100 µM
> 100 µM
